system tested: T1, human IL-33 (R&D Systems, #3625-IL-010/CF) (human, UniProt O95760 112-270)
T1 construct: Commercial recombinant protein; also called hIL-33; interleukin-33
T1 sequence (looked up): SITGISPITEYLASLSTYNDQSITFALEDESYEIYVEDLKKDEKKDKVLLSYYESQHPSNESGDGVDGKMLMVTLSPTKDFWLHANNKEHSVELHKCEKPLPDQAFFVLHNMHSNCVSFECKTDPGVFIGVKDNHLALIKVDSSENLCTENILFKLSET
experiment summary: SPR 37C, pH6.0 chase, mAb captured

binder	t½ Ratio (pH 7.4/pH 6.0)
H4H9664P (antibody, human IgG4, V domains shown, Human IgG4 Fc (H4H)) VH: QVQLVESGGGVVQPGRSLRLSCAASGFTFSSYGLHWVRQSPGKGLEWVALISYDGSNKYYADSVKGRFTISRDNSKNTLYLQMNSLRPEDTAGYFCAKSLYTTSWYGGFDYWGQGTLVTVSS VL: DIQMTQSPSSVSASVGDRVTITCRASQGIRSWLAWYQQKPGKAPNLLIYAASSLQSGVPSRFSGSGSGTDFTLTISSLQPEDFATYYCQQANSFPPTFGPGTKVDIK	3.9
H4H9667P (antibody, human IgG4, V domains shown, Human IgG4 Fc (H4H)) VH: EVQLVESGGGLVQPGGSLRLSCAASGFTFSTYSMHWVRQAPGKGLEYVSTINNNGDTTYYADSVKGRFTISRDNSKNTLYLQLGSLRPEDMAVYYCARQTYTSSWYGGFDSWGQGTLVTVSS VL: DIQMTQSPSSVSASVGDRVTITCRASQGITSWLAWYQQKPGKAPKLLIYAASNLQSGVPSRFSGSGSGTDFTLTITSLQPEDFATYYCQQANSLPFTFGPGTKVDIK	4
H1M9568N (antibody, mouse IgG1, V domains shown, Human variable domains, mouse IgG1 Fc (H1M)) VH: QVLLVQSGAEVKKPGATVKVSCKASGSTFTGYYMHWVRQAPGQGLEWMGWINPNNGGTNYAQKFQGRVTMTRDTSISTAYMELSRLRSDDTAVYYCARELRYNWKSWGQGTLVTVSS VL: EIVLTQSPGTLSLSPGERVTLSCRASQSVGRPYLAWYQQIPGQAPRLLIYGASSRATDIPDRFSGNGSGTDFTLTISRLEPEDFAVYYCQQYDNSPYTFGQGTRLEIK	1.1
H4H9675P (antibody, human IgG4, V domains shown, Human IgG4 Fc (H4H)) VH: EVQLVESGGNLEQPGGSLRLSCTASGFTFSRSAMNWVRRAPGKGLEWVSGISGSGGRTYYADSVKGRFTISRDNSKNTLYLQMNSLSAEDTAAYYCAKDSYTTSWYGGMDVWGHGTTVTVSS VL: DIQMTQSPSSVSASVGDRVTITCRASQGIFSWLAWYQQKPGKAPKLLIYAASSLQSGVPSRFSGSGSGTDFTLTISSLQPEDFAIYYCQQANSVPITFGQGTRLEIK	5.3
H4H9633P (antibody, human IgG4, V domains shown, Human IgG4 Fc (H4H)) VH: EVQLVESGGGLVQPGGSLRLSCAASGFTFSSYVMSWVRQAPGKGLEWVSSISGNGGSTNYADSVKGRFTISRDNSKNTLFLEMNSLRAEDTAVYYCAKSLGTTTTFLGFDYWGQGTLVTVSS VL: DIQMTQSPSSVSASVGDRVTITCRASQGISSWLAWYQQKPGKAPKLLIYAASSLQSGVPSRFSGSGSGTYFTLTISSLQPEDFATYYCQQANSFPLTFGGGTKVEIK	3.5
